# assayOverview: qHTS of pediatric cancer cell lines to identify multiple opportunities for drug repurposing: Primary screen for DAOY cells (AID 1347090); also: nearly all actives have a fitted effect of over 55% in size
# conditionDescription: DAOY medulloblastoma viability, CellTiter-Glo luminescence, 48 h; series mostly up to 46 µM
Results filed as inconclusive are left out. Calls of active or inactive are those of the source. Calls follow the shape of the dose curve; as a rule, active = well fitted cell-killing curve with a large enough effect; inconclusive = small, poorly fitted or top-dose-only effect; inactive = flat fitted curve, though single readings scatter.
Choose one outcome from this list and give only that: yes = active, no = inactive

Sample answers from the record:
| compound | answerLabel |
| --- | --- |
| C1COC(NC(C2CC2)C2CC2)=N1 | no |
| O=C(O)[C@@H](c1ccc(OCc2ccc3ccccc3n2)cc1)C1CCCC1 | no |
| NC(=O)c1ccc(-c2nc(-c3ccc4c(c3)OCCO4)c(-c3ccccn3)[nH]2)cc1 | no |
| Cc1ccc(N(CC2=NCCN2)c2cccc(O)c2)cc1 | no |

(Q) Dear all, I need the recorded test outcome for Cn1cnc2c(F)c(Nc3ccc(Br)cc3Cl)c(C(=O)NOCCO)cc21 , thank you.
(A) yes

(Q) Now try OC(CN1CCC(Cc2ccc(F)cc2)CC1)c1ccc(Cl)cc1 (stereo unspecified) .
(A) no
